Across several studies, compounds have been characterized by their pIC50 on UniProt P21589; a selection follows.
pIC50: −log10 of the molar value.

q: // fetch pIC50; item: COCCOC(=O)OCOP(=O)(O)CC(=O)N(C)C[C@H]1O[C@@H](n2cnc3c(NC4CCCC4)nc(Cl)nc32)[C@H](O)[C@@H]1O ; system: UniProt P21589
a: < 6.00

q: // fetch pIC50; item: O=P(O)(O)C(CO)(COCc1nnn[nH]1)OC[C@H]1O[C@H](c2cnn3c(NC4CCCC4)cc(Cl)nc23)[C@H](O)[C@@H]1O (stereo partly shown) ; system: UniProt P21589
a: 7.00 to 9.00

q: // fetch pIC50; item: O=C(NC1CCCC(F)(F)C1)O[C@H]1CN(c2cn[nH]c(=O)c2Cl)C[C@@H]1F (stereo partly shown) ; system: UniProt P21589
a: 5.00 to 9.00

q: // fetch pIC50; item: CC(C)(C)OC(=O)N[C@@H]1CCN(c2cn[nH]c(=O)c2)C1 ; system: UniProt P21589
a: 4.00 to 5.00

###

Across several studies, compounds have been characterized by their pIC50 on CD73 (Homo sapiens (Human), UniProt P21589); a selection follows.
pIC50: −log10 of the molar value.

q: // fetch pIC50; item: CC1(C)OC2C(O1)[C@@H](COP(=O)(O)CP(=O)(O)O)O[C@H]2n1cnc2c(NCc3ccccc3)nc(Cl)nc21 (stereo partly shown) ; system: CD73 (Homo sapiens (Human), UniProt P21589)
a: 7.00 to 8.00

q: // fetch pIC50; item: CNc1nc(NCc2cccc(Cl)c2)c2cnn([C@@H]3O[C@H](COCP(=O)(O)O)[C@@H](O)[C@H]3O)c2n1 ; system: CD73 (Homo sapiens (Human), UniProt P21589)
a: < 6.00

q: // fetch pIC50; item: Cc1nc(C(=O)N2CCC(NC(=O)O[C@@H]3CCN(c4cn[nH]c(=O)c4Cl)C3)CC2)cs1 ; system: CD73 (Homo sapiens (Human), UniProt P21589)
a: 5.00 to 9.00

q: // fetch pIC50; item: O=C(N[C@H]1CC[C@H](NS(=O)(=O)CCC(F)(F)F)CC1)O[C@@H]1CCN(c2cn[nH]c(=O)c2Cl)C1 ; system: CD73 (Homo sapiens (Human), UniProt P21589)
a: 5.00 to 9.00

###

Across several studies, compounds have been characterized by their IC50 on CD73 (Homo sapiens (Human), UniProt P21589); a selection follows.

q: // fetch IC50; item: C[C@H]1CC[C@H](NC(=O)O[C@@H]2CCN(c3cn[nH]c(=O)c3Cl)C2)CC1 ; system: CD73 (Homo sapiens (Human), UniProt P21589)
a: 0.001 to 10 µM

q: // fetch IC50; item: O=C(N[C@H]1CC[C@H](NS(=O)(=O)c2ccccc2F)CC1)O[C@@H]1CCN(c2cn[nH]c(=O)c2Cl)C1 ; system: CD73 (Homo sapiens (Human), UniProt P21589)
a: 0.001 to 10 µM

q: // fetch IC50; item: O=C(N[C@H]1CC[C@H](NC(=O)c2ccccc2)C1)O[C@@H]1CCN(c2cn[nH]c(=O)c2Cl)C1 ; system: CD73 (Homo sapiens (Human), UniProt P21589)
a: 0.001 to 10 µM

q: // fetch IC50; item: Cc1nc(NC(=O)O[C@@H]2CCN(c3cn[nH]c(=O)c3Cl)C2)sc1C ; system: CD73 (Homo sapiens (Human), UniProt P21589)
a: 10 to 100 µM

q: // fetch IC50; item: CC(C)CNc1nc(Cl)nc2c1cnn2[C@@H]1O[C@H](CO[C@](CO)(Cc2nn[nH]n2)P(=O)(O)O)[C@@H](O)[C@H]1O ; system: CD73 (Homo sapiens (Human), UniProt P21589)
a: ≤ 0.01 µM

q: // fetch IC50; item: O=P(O)(O)[C@](CO)(COCc1nn[nH]n1)OC[C@H]1O[C@@H](c2ccc3c(NCC4CC4)nc(Cl)nn23)[C@H](O)[C@@H]1O ; system: CD73 (Homo sapiens (Human), UniProt P21589)
a: 0.001 to 0.1 µM

q: // fetch IC50; item: O=C(NC1CCN(C(=O)C(F)(F)F)CC1)N[C@H]1CCN(c2cn[nH]c(=O)c2Cl)C1 ; system: CD73 (Homo sapiens (Human), UniProt P21589)
a: 10 to 100 µM

###

Across several studies, compounds have been characterized by their IC50 on CD73 (Homo sapiens (Human)); a selection follows.

q: Item N#CC1(NC(=O)O[C@@H]2CCN(c3cn[nH]c(=O)c3Cl)C2)CCCC1 : provide IC50
a: 1 to 10000 nM

q: Item N#C[C@H]1CCC[C@H]1NC(=O)O[C@@H]1CCN(c2cn[nH]c(=O)c2Cl)C1 : provide IC50
a: 1 to 10000 nM

q: Item O=C(CO)N[C@H]1CC[C@H](NC(=O)O[C@@H]2CCN(c3cn[nH]c(=O)c3Cl)C2)CC1 : provide IC50
a: 1 to 10000 nM

q: Item O=C(N[C@H]1CCCC(F)(F)C1)O[C@@H]1CCN(c2cnn(CCO)c(=O)c2Cl)C1 : provide IC50
a: 1 to 10000 nM

q: Item COCC(CCC(=O)O)(OC[C@H]1O[C@@H](n2ncc3c(NC4CCCC4)nc(Cl)nc32)[C@H](O)[C@@H]1O)P(=O)(O)O (stereo partly drawn) : provide IC50
a: ≤ 10 nM

q: Item O=C(NC1CCN(C(=O)C2CCCC2)CC1)O[C@@H]1CCN(c2cn[nH]c(=O)c2Cl)C1 : provide IC50
a: 1 to 10000 nM

q: Item O=P(O)(O)CS(=O)(=O)C[C@H]1O[C@@H](n2nnc3c(NCC4CC4)cc(Cl)nc32)[C@H](O)[C@@H]1O : provide IC50
a: ≤ 100 nM

q: Item CCCNC(=O)[C@H]1C[C@H](NC(=O)O[C@@H]2CCN(c3cn[nH]c(=O)c3Cl)C2)C1 : provide IC50
a: 1 to 10000 nM

q: Item O=C(NC1CCCCCC1)O[C@@H]1CCN(c2cn[nH]c(=O)c2Cl)C1 : provide IC50
a: 1 to 10000 nM

q: Item O=P(O)(O)C(CO)OC[C@H]1O[C@@H](n2ncc3c(NCC4CC4)nc(Cl)nc32)[C@H](O)[C@@H]1O (stereo partly drawn) : provide IC50
a: ≤ 100 nM

q: Item C[C@@H](OC[C@H]1O[C@@H](n2ncc3c(NC4CCCC4)nc(Cl)nc32)[C@H](O)[C@@H]1O)P(=O)(O)O : provide IC50
a: ≤ 100 nM

q: Item CC(CO)(OC[C@H]1O[C@@H](n2ncc3c(N[C@@H]4CC[C@H]5CCC[C@H]54)nc(Cl)nc32)[C@H](O)[C@@H]1O)P(=O)(O)O (stereo partly drawn) : provide IC50
a: ≤ 100 nM

q: Item O=C(NC1CCN(C(=O)C2(c3cccc(Br)c3)CC2)CC1)O[C@@H]1CCN(c2cn[nH]c(=O)c2Cl)C1 : provide IC50
a: 1 to 10000 nM

q: Item CCOC(=O)OCOP(=O)(CC(=O)N(C)C[C@H]1O[C@@H](n2cnc3c(N[C@H]4CCOC4)nc(Cl)nc32)[C@H](O)[C@@H]1O)OCOC(=O)OCC : provide IC50
a: > 1000 nM

q: Item C[C@H]1CCC[C@@H]1Nc1nc(Cl)nc2c1cnn2[C@@H]1O[C@H](COC(CO)(CO)P(=O)(O)O)[C@@H](O)[C@H]1O : provide IC50
a: ≤ 10 nM

###

Across several studies, molecules have been characterized by their pIC50 on CD73 (Homo sapiens (Human), UniProt P21589); a selection follows.
pIC50: −log10 of the molar value.

q: // fetch pIC50; item: Cc1c(N2CC[C@@H](NC(=O)OC3CCCCC3)C2)cn[nH]c1=O ; system: CD73 (Homo sapiens (Human), UniProt P21589)
a: 5.00 to 9.00

q: // fetch pIC50; item: [2H]C([2H])([2H])OC[C@](COCc1nn[nH]n1)(OC[C@H]1O[C@@H](n2ncc3c(NC4CCCC4)nc(Cl)nc32)[C@H](O)[C@@H]1O)P(=O)(O)O ; system: CD73 (Homo sapiens (Human), UniProt P21589)
a: ≥ 8.00

q: // fetch pIC50; item: C[C@H](Nc1nc(Cl)nc2c1cnn2[C@@H]1O[C@H](CS(=O)(=O)CP(=O)(O)O)[C@@H](O)[C@H]1O)c1ccc(F)cc1 ; system: CD73 (Homo sapiens (Human), UniProt P21589)
a: ≥ 6.30

q: // fetch pIC50; item: Cn1ncc2cccc(CNc3nc(Cl)nc4c3cnn4[C@@H]3O[C@H](COCP(=O)(O)O)[C@@H](O)[C@H]3O)c21 ; system: CD73 (Homo sapiens (Human), UniProt P21589)
a: ≥ 6.30

q: // fetch pIC50; item: CCNc1nc(Cl)nc2c1cnn2[C@@H]1O[C@H](COCP(=O)(O)O)[C@@H](O)[C@H]1O ; system: CD73 (Homo sapiens (Human), UniProt P21589)
a: ≥ 6.30

q: // fetch pIC50; item: CCC(OC[C@H]1O[C@@H](n2ncc3c(NC4CCCC4)nc(Cl)nc32)[C@H](O)[C@@H]1O)P(=O)(O)O (stereo partly shown) ; system: CD73 (Homo sapiens (Human), UniProt P21589)
a: ≥ 7.00

q: // fetch pIC50; item: COC[C@](CC(=O)O)(OC[C@H]1O[C@@H](c2ccc3c(NC4CCCC4)nc(Cl)nn23)[C@H](O)[C@@H]1O)P(=O)(O)O ; system: CD73 (Homo sapiens (Human), UniProt P21589)
a: ≥ 9.30
